Entry source: patent US20240166669A1

target: K-Ras G12D (Homo sapiens, UniProt P01116, G12D); construct: AGS (Cobioer, CBP60476) cell lines which harbor KRAS G12D mutation; host or cells: AGS; test: p-ERK Cellular 1-Plate Assay (Biological Example 3); type: cell-based; settings: AGS cells (KRAS G12D), 3 h treatment, AlphaLISA p-ERK1/2, 1-plate; Biological Example 3 (values marked *); read-out: AGS PERK EC50
Sequence (P01116 1-188 isoform P01116-2 G12D): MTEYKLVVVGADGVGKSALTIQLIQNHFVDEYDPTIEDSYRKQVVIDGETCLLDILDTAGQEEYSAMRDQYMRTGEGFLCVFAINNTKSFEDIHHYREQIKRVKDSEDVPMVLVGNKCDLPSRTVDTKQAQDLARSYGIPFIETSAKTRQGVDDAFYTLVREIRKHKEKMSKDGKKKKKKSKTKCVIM
measuredParameter: EC50 (nM)
Express it in nM; write the number only.

molecule: C#Cc1c(F)ccc2cc(O)cc(-c3ncc4c(N5C[C@H]6CC[C@H](N6)C5C)nc(OCC56CCCN5CC(=C)C6)nc4c3F)c12 (stereo partly drawn) [Example 54]
measuredParameter: EC50
unitString: nM
resultNumber: 1.4

Inquiry: Tell me the measured EC50 of C#Cc1c(F)ccc2cccc(-c3ncc4c(N5C[C@H]6CC[C@@H](C5)N6)nc(OCC56CCCN5CC(=C)CC6)nc4c3F)c12 (stereo partly drawn) [Example 50] , please.
Reply text: 213

---

biological target: K-Ras G12D (Homo sapiens, UniProt P01116, G12D); construct: AGS (Cobioer, CBP60476) cell lines which harbor KRAS G12D mutation; host or cells: AGS; assay: p-ERK Cellular 2-Plate Assay (Biological Example 2); assay type: cell-based; conditions: AGS cells (KRAS G12D), 3 h treatment, AlphaLISA p-ERK1/2, 2-plate; Biological Example 2 (unmarked values); read-out: AGS PERK EC50
measuredParameter: EC50 (nM)
Write the answer as a number in nM, unit excluded.

Completed entries (count: 5):
compound: C#Cc1cccc2cc(O)cc(-c3ncc4c(N5C[C@H]6CC[C@@H](C5)N6)nc(OC[C@@]56CC7COc8ccccc8C7N5C[C@H](F)C6)nc4c3F)c12 (stereo partly drawn)
EC50 (nM): 3.6

compound: C#Cc1cccc2cc(O)cc(-c3ncc4c(N5C[C@H]6CC[C@@H](C5)N6)nc(OCC56CCCN5Cc5c(OC)cccc56)nc4c3F)c12 (stereo partly drawn)
EC50 (nM): 2

compound: C#Cc1cccc2cc(O)cc(-c3ncc4c(N5CC6CCC(C5)N6)nc(OCC56CCCN5Cc5cccc(F)c56)nc4c3F)c12 (stereo not drawn)
EC50 (nM): 20

compound: C#Cc1cccc2cc(O)cc(-c3ncc4c(N5CC6CC(=C)C(C5)N6)nc(OCC56CCCN5CCC6)nc4c3F)c12 (stereo not drawn)
EC50 (nM): 128

compound: C#Cc1cccc2cc(O)cc(-c3ncc4c(N5CC6CCC(C5)N6)nc(OCC56CCCN5Cc5cccnc56)nc4c3F)c12 (stereo not drawn)
EC50 (nM): 46

Inquiry: Please report the recorded EC50 for C#Cc1cccc2cc(O)cc(-c3ncc4c(N5CC6C=C(C#N)C(C5)N6)nc(OCC56CCCN5CCC6)nc4c3F)c12 (stereo not drawn) .
Reply text: 260

Inquiry: // EC50 lookup, key: C#Cc1cccc2cc(O)cc(-c3ncc4c(N5CC6NC(C5)C5CC65)nc(OCC56CCCN5CCC6)nc4c3F)c12 (stereo not drawn)
Reply text: 253

---

biological target: K-Ras G12D (Homo sapiens, UniProt P01116, G12D); construct: AGS (Cobioer, CBP60476) cell lines which harbor KRAS G12D mutation; host or cells: AGS; test: p-ERK Cellular 2-Plate Assay (Biological Example 2); format: cell-based; details: AGS cells (KRAS G12D), 3 h treatment, AlphaLISA p-ERK1/2, 2-plate; Biological Example 2 (unmarked values); read-out: AGS PERK EC50
API: label(entry) gives 1 (yes) if the entry's EC50 is strictly smaller than 1 nM; on equality or larger values it gives 0 (no).

// known answers, use as guide
compound: C#Cc1cccc2cc(O)cc(-c3ncc4c(N5CC6CCC(C5)N6)nc(OC[C@]56CCCN5[C@H]5c7ccccc7OCC5C6)nc4c3F)c12 (mixture of isomers)
targetOrTestSystem: K-Ras G12D (Homo sapiens, UniProt P01116, G12D)
classAssignment: 1 (yes)

compound: C#Cc1c(F)ccc2cccc(-c3ncc4c(N5C[C@H]6CC[C@@H](C5)N6)nc(OCC56CCCN5CC(=CC)C6)nc4c3F)c12 (stereo partly drawn)
targetOrTestSystem: K-Ras G12D (Homo sapiens, UniProt P01116, G12D)
classAssignment: 0 (no)

compound: C#Cc1cccc2cc(O)cc(-c3ncc4c(N5CC6CCC(C5)N6)nc(OC[C@]56CCCN5[C@H]5c7cccnc7OCC5C6)nc4c3F)c12 (mixture of isomers)
targetOrTestSystem: K-Ras G12D (Homo sapiens, UniProt P01116, G12D)
classAssignment: 0 (no)

compound: C#Cc1cccc2cc(O)cc(-c3ncc4c(N5C[C@H]6CC[C@@H](C5)N6)nc(OCC56CCCN5Cc5c(C(F)(F)F)cccc56)nc4c3F)c12 (stereo partly drawn)
targetOrTestSystem: K-Ras G12D (Homo sapiens, UniProt P01116, G12D)
classAssignment: 0 (no)

compound: C#Cc1c(F)ccc2cccc(-c3ncc4c(N5C[C@H]6CC[C@@H](C5)N6)nc(OCC56CCCN5CC(=C)C6)nc4c3F)c12 (stereo partly drawn)
targetOrTestSystem: K-Ras G12D (Homo sapiens, UniProt P01116, G12D)
classAssignment: 0 (no)

Moving on to another compound below.
Inquiry: Lab note: confirm whether the reported EC50 for this compound is below 1 nM, equality not counting. compound: C#Cc1cccc2cc(O)cc(-c3ncc4c(N5C[C@H]6CC[C@@H](C5)N6)nc(OCC56CCCN5Cc5c6cnn5C)nc4c3F)c12 (stereo partly drawn)
Reply text: 0 (no)

---

Listed molecules paired with reported pEC50
biological target: K-Ras G12D (Homo sapiens, UniProt P01116, G12D); construct: AGS (Cobioer, CBP60476) cell lines which harbor KRAS G12D mutation; host or cells: AGS; test: p-ERK Cellular 2-Plate Assay (Biological Example 2); assay type: cell-based; details: AGS cells (KRAS G12D), 3 h treatment, AlphaLISA p-ERK1/2, 2-plate; Biological Example 2 (unmarked values); read-out: AGS PERK EC50
pEC50 is a log-scale quantity: -log10 of the concentration expressed in molar.

molecule: C#Cc1cccc2cc(O)cc(-c3ncc4c(N5CC6CC7(CC7)C(C5)N6)nc(OCC56CCCN5CCC6)nc4c3F)c12 (stereo not drawn) [Example 53]
pEC50: 6.58
--
molecule: C#Cc1cccc2cc(O)cc(-c3ncc4c(N5CC6CCC(C5)N6)nc(OC[C@@]56CCCN5[C@@H]5CCOCC5C6)nc4c3F)c12 (mixture of isomers) [Example 23]
pEC50: 9.32

From here, focus on the item given below.
Inquiry: # query: pEC50 of entry C#Cc1cccc2cc(O)cc(-c3ncc4c(N5CC6CCC(C5)N6)nc(OCC56CCCN5Cc5c(F)cccc56)nc4c3F)c12 (stereo not drawn) [Example 24]
Reply text: 8.43

---

# pEC50 values compiled below
biological target: K-Ras G12D (Homo sapiens, UniProt P01116, G12D); construct: AGS (Cobioer, CBP60476) cell lines which harbor KRAS G12D mutation; host or cells: AGS; assay: p-ERK Cellular 1-Plate Assay (Biological Example 3); format: cell-based; settings: AGS cells (KRAS G12D), 3 h treatment, AlphaLISA p-ERK1/2, 1-plate; Biological Example 3 (values marked *); read-out: AGS PERK EC50
Schema: pEC50 number; meaning minus log10 of the concentration expressed in molar units.

Consider the worked cases shown below.
molecule: C#Cc1c(F)ccc2cccc(-c3ncc4c(N5C[C@H]6CC[C@@H](C5)N6)nc(OCC56CCCCN5CC(=C)C6)nc4c3F)c12 (some centres unmarked) [Example 51]
pEC50: 6.08
--
molecule: C#Cc1c(F)ccc2cccc(-c3ncc4c(N5C[C@H]6CC[C@@H](C5)N6)nc(OCC56CC(=C)CN5CC(=C)C6)nc4c3F)c12 [Example 47]
pEC50: 7.28

Inquiry: Which pEC50 reading was recorded for the molecule C#Cc1c(F)ccc2cc(O)cc(-c3ncc4c(N5C[C@H]6CC[C@@H](C5)N6)nc(OCC56CCCCN5CC(=C)C6)nc4c3F)c12 (some centres unmarked) [Example 43] ?
Reply text: 7.74

Inquiry: For the molecule C#Cc1c(F)ccc2cc(O)cc(-c3ncc4c(N5C[C@H]6CC[C@@H](C5)N6)nc(OC[C@@H]5CC(=C)CN5C)nc4c3F)c12 [Example 46] , what pEC50 is on record?
Reply text: 8.28

---

molecular target: K-Ras G12D (Homo sapiens, UniProt P01116, G12D); construct: AGS (Cobioer, CBP60476) cell lines which harbor KRAS G12D mutation; host or cells: AGS; assay: p-ERK Cellular 2-Plate Assay (Biological Example 2); format: cell-based; details: AGS cells (KRAS G12D), 3 h treatment, AlphaLISA p-ERK1/2, 2-plate; Biological Example 2 (unmarked values); read-out: AGS PERK EC50
Lab note: compare EC50 with 1 nM, writing Yes if less and No if equal or more.

Reference set, count: 5
compound: C#Cc1c(F)ccc2cccc(-c3ncc4c(N5CC6CCC(C5)N6)nc(OCC56CCCN5Cc5ccccc56)nc4c3F)c12 (stereo not drawn) [Example 12]
classAssignment: No

compound: C#Cc1cccc2cc(O)cc(-c3ncc4c(N5C[C@H]6CC[C@@H](C5)N6)nc(OCC56CCCN5Cc5ccccc56)nc4c3F)c12 (stereo partly drawn) [Example 6]
classAssignment: Yes

compound: C#Cc1cccc2cc(O)cc(-c3c(Cl)cc4c(N5C[C@H]6CC[C@@H](C5)N6)nc(OCC56CCCN5CC(=C)C6)nc4c3F)c12 (stereo partly drawn) [Example 56]
classAssignment: No

compound: C#Cc1cccc2cc(O)cc(-c3ncc4c(N5C[C@H]6CC[C@@H](C5)N6)nc(OCC56CCCN5CC(=CC(F)F)C6)nc4c3F)c12 (stereo partly drawn) [Example 3]
classAssignment: No

compound: C#Cc1cccc2cc(O)cc(-c3ncc4c(N5C[C@H]6CC[C@@H](C5)N6)nc(OCC56CCCN5CC(=CF)C6)nc4c3F)c12 (stereo partly drawn) [Example 2]
classAssignment: Yes

Inquiry: Does C#Cc1cccc2cc(O)cc(-c3ncc4c(N5C[C@H]6CC[C@@H](C5)N6)nc(OCC56CCCN5Cc5cc(OC)ccc56)nc4c3F)c12 (stereo partly drawn) [Example 30] have EC50 strictly under 1 nM?
Reply text: No
